REPORTED_ENDPOINT: melting point

{"columns": ["COMPOUND", "VALUE_MEASURED"],
 "data": [
  ["Cc1cccc(Nc2cc(-c3c(-c4cccc(C)c4)nc4cccnn34)ccn2)c1", "195 to 196 °C"]
]}

Request: For the compound shown here, Cc1cc(-c2nc3cccnn3c2-c2ccnc(NC(=O)N3CCOCC3)c2)ccc1F.Cl , give the reported melting point.
Response: 164 to 166 °C

Request: For the compound shown here, Cc1cc(-c2nc3cccnn3c2-c2ccnc(NC(=O)c3ccc4ccccc4c3)c2)ccc1F , give the reported melting point.
Response: 187 to 188 °C

---

Here the recorded melting point is given for each entry.

{"columns": ["COMPOUND", "melting point"],
 "data": [
  ["CCNc1cc(-c2c(-c3cccc(C)c3)nc3cccnn23)ccn1 [Example Compound 6-26]", "151 to 153 °C"],
  ["CC(C)NC(=O)Nc1cc(-c2c(-c3ccc(F)cc3)nc3cccnn23)ccn1 [Example Compound 28-10]", "222 to 223 °C"],
  ["CC(=O)CNC(=O)Nc1cc(-c2c(-c3ccc(F)c(C)c3)nc3cccnn23)ccn1 [Example 63]", "208 to 209 °C"],
  ["CSc1ccc2nc(-c3ccc(F)c(C)c3)c(-c3ccnc(NC(=O)NC(C)C)c3)n2n1 [Example 54]", "241 to 242 °C"],
  ["Cc1cc(NC(=O)Nc2cc(-c3c(-c4ccc(F)c(C)c4)nc4cccnn34)ccn2)[nH]n1 [Example 51-8]", "239 to 240 °C"],
  ["Cc1cc(-c2nc3cccnn3c2-c2ccnc(NC(=O)C(C)C)c2)ccc1F [Example 42-2]", "214 to 215 °C"],
  ["CSCCC(=O)Nc1cc(-c2c(-c3ccc(F)c(C)c3)nc3cccnn23)ccn1 [Example 42-5]", "158 to 159 °C"],
  ["Nc1cc(-c2c(-c3cccc(Cl)c3)nc3ccc(Cl)nn23)ccn1 [Example Compound 13-1]", "268 to 269 °C"],
  ["Cc1cc(-c2nc3cccnn3c2-c2ccnc(NC(=O)c3ccc(OC(F)(F)F)cc3)c2)ccc1F [Example 42-14]", "225 to 226 °C"],
  ["COCCNc1cc(-c2c(-c3cccc(C)c3)nc3cccnn23)ccn1 [Example Compound 6-13]", "99 to 100 °C"]
]}

Request: For the compound shown here, Cc1cc(-c2nc3cccnn3c2-c2ccnc(NC(=O)c3cccnc3C)c2)ccc1F [Example 42-29] , give the reported melting point.
Response: 258 to 259 °C

Request: For the compound shown here, Cc1cc(-c2nc3cc(C(C)(C)C)cnn3c2-c2ccnc(NC(=O)c3ccc(F)cc3)c2)ccc1F [Example 41-5] , give the reported melting point.
Response: 201 to 202 °C

Request: For the compound shown here, Cc1cc(-c2nc3cccnn3c2-c2ccnc(NC(=O)c3cncc(Cl)c3)c2)ccc1F [Example 42-28] , give the reported melting point.
Response: 252 to 254 °C

Request: For the compound shown here, Cc1cccc(-c2nc3cccnn3c2-c2ccnc(NC(=O)c3ccccc3F)c2)c1 [Example Compound 20-5] , give the reported melting point.
Response: 180 to 181 °C

Request: For the compound shown here, Cc1cccc(-c2nc3cccnn3c2-c2ccnc(NC3CCC3)c2)c1 [Example Compound 6-3] , give the reported melting point.
Response: 152 to 153 °C

Request: For the compound shown here, Cc1cc(-c2nc3cccnn3c2-c2ccnc(NC(=O)NCCS(C)(=O)=O)c2)ccc1F [Example 51-5] , give the reported melting point.
Response: 204 to 205 °C

Source listed as patent US20080167314A1.
